COND: in acetonitrile, 323.15 K
QUANTITY: solubility (mole fraction)
Lab note: record just the number, no unit beside it.

For N#CC(c1ccc(Cl)cc1)c1c(Cl)cc(-n2ncc(=O)[nH]c2=O)cc1Cl (stereo unspecified) , what is its reported solubility (mole fraction)?
0.0279

###

COND: in DMF, 318.15 K
QUANTITY: solubility (mole fraction)
Lab note: record just the number, no unit beside it.

For N#CC(c1ccc(Cl)cc1)c1c(Cl)cc(-n2ncc(=O)[nH]c2=O)cc1Cl (stereo unspecified) , what is its reported solubility (mole fraction)?
0.0484

###

COND: in ethyl acetate, 318.15 K
QUANTITY: solubility (mole fraction)

For N#CC(c1ccc(Cl)cc1)c1c(Cl)cc(-n2ncc(=O)[nH]c2=O)cc1Cl (stereo unspecified) , what is its reported solubility (mole fraction)?
0.0185

###

COND: in methanol, 283.15 K
QUANTITY: solubility (mole fraction)
Lab note: record just the number, no unit beside it.

For N#CC(c1ccc(Cl)cc1)c1c(Cl)cc(-n2ncc(=O)[nH]c2=O)cc1Cl (stereo unspecified) , what is its reported solubility (mole fraction)?
0.00233

###

COND: in ethyl acetate, 323.15 K
QUANTITY: solubility (mole fraction)
Lab note: record just the number, no unit beside it.

For N#CC(c1ccc(Cl)cc1)c1c(Cl)cc(-n2ncc(=O)[nH]c2=O)cc1Cl (stereo unspecified) , what is its reported solubility (mole fraction)?
0.0217

###

COND: in toluene, 308.15 K
QUANTITY: solubility (mole fraction)
Lab note: record just the number, no unit beside it.

For N#CC(c1ccc(Cl)cc1)c1c(Cl)cc(-n2ncc(=O)[nH]c2=O)cc1Cl (stereo unspecified) , what is its reported solubility (mole fraction)?
0.00123

###

COND: in DMF, 283.15 K
QUANTITY: solubility (mole fraction)
Lab note: record just the number, no unit beside it.

For N#CC(c1ccc(Cl)cc1)c1c(Cl)cc(-n2ncc(=O)[nH]c2=O)cc1Cl (stereo unspecified) , what is its reported solubility (mole fraction)?
0.0254

###

COND: in methanol, 313.15 K
QUANTITY: solubility (mole fraction)
Lab note: record just the number, no unit beside it.

For N#CC(c1ccc(Cl)cc1)c1c(Cl)cc(-n2ncc(=O)[nH]c2=O)cc1Cl (stereo unspecified) , what is its reported solubility (mole fraction)?
0.00566

###

COND: in ethanol, 313.15 K
QUANTITY: solubility (mole fraction)
Lab note: record just the number, no unit beside it.

For N#CC(c1ccc(Cl)cc1)c1c(Cl)cc(-n2ncc(=O)[nH]c2=O)cc1Cl (stereo unspecified) , what is its reported solubility (mole fraction)?
0.00476

###

COND: in acetonitrile, 313.15 K
QUANTITY: solubility (mole fraction)
Lab note: record just the number, no unit beside it.

For N#CC(c1ccc(Cl)cc1)c1c(Cl)cc(-n2ncc(=O)[nH]c2=O)cc1Cl (stereo unspecified) , what is its reported solubility (mole fraction)?
0.0211

###

COND: in acetone, 288.15 K
QUANTITY: solubility (mole fraction)
Lab note: record just the number, no unit beside it.

For N#CC(c1ccc(Cl)cc1)c1c(Cl)cc(-n2ncc(=O)[nH]c2=O)cc1Cl (stereo unspecified) , what is its reported solubility (mole fraction)?
0.014
